PROCEDURE TEXT: Emission spectra and fluorescence quantum yield
Type: physicochemical
RUN CONDITIONS: in acetonitrile
Counter-ions that a name gives are not always drawn.
OBSERVED PROPERTY: Emission max.

- MOLECULE: "CCN(CC)c1ccc2c(P(=O)(OC(C)(C)C)OC(C)(C)C)c(-c3nc4ccccc4s3)c(=O)oc2c1 [Compound 3]"
  OBSERVED PROPERTY: "Emission max."
  RESULT VALUE: "658 nm"
- MOLECULE: "COP(=O)(OC)c1c(-c2nc3ccccc3s2)c(=O)oc2cc(N3CC(O)C3)ccc12 [Compound 2]"
  OBSERVED PROPERTY: "Emission max."
  RESULT VALUE: "651 nm"
- MOLECULE: "COP(=O)([c+]1c2ccc(N(C)C)cc2sc2cc(N(C)C)ccc21)N(C(C)C)C(C)C.O=C([O-])C(F)(F)F (stereo not drawn) [Compound 21]"
  OBSERVED PROPERTY: "Emission max."
  RESULT VALUE: "728 nm"

Respectfully, I request Emission max. for each entry included below.
1. CCOP(=O)(C1=c2cc3c4c(c2Oc2c1cc1c5c2CCCN5CCC1)CCC[N+]=4CCC3)N(C)CCC(=O)O (stereo not drawn) [Compound 19, trifluoroacetate]
2. CC(C)OP(=O)(OC(C)C)c1c2ccc(N(C)C)cc2[o+]c2cc(N(C)C)ccc12.O=C([O-])C(F)(F)F [Compound 6]
3. C=CCOC(=O)CCCOP(=O)(OC)[c+]1c2ccc(N(C)C)cc2oc2cc(N(C)C)ccc21 (stereo not drawn) [Compound 12]
4. COP(=O)(C1=c2cc3c4c(c2Oc2c1cc1c5c2CCCN5CCC1)CCC[N+]=4CCC3)N(C(C)C)C(C)C (stereo not drawn) [Compound 17, trifluoroacetate]
5. CCOP(=O)(c1c2ccc(=[N+](C)C)cc-2oc2cc(N(C)C)ccc12)N(C)CCC(=O)O.O=C([O-])C(F)(F)F (stereo not drawn) [Compound 10]
6. CN(C)c1ccc2c(P(=O)(c3ccccc3)c3ccccc3)c3ccc(N(C)C)cc3[o+]c2c1.O=C([O-])C(F)(F)F [Compound 8]

1: 682 nm; 2: 649 nm; 3: 653 nm; 4: 679 nm; 5: 652 nm; 6: 600 nm
